TARGET DESC: AXL (human) (UniProt P30530)
Sequence (P30530 whole entry, looked up): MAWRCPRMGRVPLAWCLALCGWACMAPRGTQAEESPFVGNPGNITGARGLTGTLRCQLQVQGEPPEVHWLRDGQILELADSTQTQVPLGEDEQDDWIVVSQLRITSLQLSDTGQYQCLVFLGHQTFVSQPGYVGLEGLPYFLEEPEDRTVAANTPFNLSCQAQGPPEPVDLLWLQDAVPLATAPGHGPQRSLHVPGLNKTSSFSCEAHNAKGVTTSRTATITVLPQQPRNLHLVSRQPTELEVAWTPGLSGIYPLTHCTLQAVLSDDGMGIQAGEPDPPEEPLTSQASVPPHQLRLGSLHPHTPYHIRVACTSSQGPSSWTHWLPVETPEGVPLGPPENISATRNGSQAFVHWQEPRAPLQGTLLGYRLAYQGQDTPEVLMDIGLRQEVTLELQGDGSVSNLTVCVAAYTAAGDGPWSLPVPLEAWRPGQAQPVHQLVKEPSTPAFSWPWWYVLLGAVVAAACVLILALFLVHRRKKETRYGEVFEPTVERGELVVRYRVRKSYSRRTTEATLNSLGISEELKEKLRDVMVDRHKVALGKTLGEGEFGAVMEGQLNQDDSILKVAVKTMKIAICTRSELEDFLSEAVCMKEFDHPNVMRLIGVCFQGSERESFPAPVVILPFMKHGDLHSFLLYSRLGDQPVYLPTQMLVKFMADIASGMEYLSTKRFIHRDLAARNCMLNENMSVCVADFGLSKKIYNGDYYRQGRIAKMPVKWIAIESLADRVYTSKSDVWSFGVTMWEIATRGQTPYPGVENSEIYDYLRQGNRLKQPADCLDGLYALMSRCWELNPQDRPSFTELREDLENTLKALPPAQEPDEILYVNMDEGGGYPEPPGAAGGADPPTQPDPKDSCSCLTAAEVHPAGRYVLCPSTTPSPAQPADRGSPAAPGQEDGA
RUN DESCRIPTION: KINOMEscan competition binding
CONDITION LABEL: compound 10.0 µM
Entries and their kinase still bound, per cent of control

# SMILES DATA, TARGET DESC, kinase still bound, per cent of control
data = [
    ("O=C1NC(=O)/C(=C/c2ccc3nccc(-c4ccncc4)c3c2)S1", "AXL (human) (UniProt P30530)", "7.6%"),
    ("O=C(Nc1cccc(Nc2ncc(Br)c(NCCc3cnc[nH]3)n2)c1)N1CCCC1", "AXL (human) (UniProt P30530)", "1.2%"),
    ("COc1cc(N2CCN(C)CC2)ccc1Nc1ncc2c(n1)N(C)c1ccccc1C(=O)N2C", "AXL (human) (UniProt P30530)", "100%"),
    ("CN(C)C/C=C/C(=O)Nc1ccc(C(=O)Nc2cccc(Nc3nccc(-c4cccnc4)n3)c2)cc1", "AXL (human) (UniProt P30530)", "80%"),
    ("COc1cc(C(=O)N2CCC(N3CCN(C)CC3)CC2)ccc1Nc1ncc2c(n1)N(C)c1ccccc1C(=O)N2C", "AXL (human) (UniProt P30530)", "100%"),
]

###

Entries and their kinase still bound, per cent of control
TARGET DESC: UniProt:O94921
Sequence (O94921 whole entry, looked up): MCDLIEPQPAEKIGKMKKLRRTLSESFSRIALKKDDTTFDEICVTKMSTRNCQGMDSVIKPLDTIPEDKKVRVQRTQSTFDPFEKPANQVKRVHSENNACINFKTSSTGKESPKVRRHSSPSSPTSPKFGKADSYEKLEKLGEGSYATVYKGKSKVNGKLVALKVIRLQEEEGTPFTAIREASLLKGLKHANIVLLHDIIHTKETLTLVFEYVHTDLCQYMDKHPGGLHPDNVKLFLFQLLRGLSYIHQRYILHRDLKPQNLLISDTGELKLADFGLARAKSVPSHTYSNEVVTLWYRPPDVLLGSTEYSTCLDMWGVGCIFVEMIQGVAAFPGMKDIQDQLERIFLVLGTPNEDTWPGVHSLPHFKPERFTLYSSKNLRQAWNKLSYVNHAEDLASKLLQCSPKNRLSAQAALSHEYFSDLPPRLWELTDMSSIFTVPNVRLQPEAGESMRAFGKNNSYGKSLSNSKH
RUN DESCRIPTION: KINOMEscan competition binding
CONDITION LABEL: compound 10.0 µM

# SMILES DATA, kinase still bound, per cent of control [%]
measured = [
    ("O=C(Nc1cccc(Nc2ncc(Br)c(NCCc3cnc[nH]3)n2)c1)N1CCCC1", 44),
    ("C[C@@H](Oc1cc(-c2cnn(C3CCNCC3)c2)cnc1N)c1c(Cl)ccc(F)c1Cl", 92),
    ("COc1cc(C(=O)N2CCC(N3CCN(C)CC3)CC2)ccc1Nc1ncc2c(n1)N(C)c1ccccc1C(=O)N2C", 81),
    ("CN(C)C/C=C/C(=O)Nc1ccc(C(=O)Nc2cccc(Nc3nccc(-c4cccnc4)n3)c2)cc1", 98),
]

###

Entries and their kinase still bound, per cent of control
TARGET DESC: PKN1 (human) (UniProt Q16512)
Sequence (Q16512 whole entry, looked up): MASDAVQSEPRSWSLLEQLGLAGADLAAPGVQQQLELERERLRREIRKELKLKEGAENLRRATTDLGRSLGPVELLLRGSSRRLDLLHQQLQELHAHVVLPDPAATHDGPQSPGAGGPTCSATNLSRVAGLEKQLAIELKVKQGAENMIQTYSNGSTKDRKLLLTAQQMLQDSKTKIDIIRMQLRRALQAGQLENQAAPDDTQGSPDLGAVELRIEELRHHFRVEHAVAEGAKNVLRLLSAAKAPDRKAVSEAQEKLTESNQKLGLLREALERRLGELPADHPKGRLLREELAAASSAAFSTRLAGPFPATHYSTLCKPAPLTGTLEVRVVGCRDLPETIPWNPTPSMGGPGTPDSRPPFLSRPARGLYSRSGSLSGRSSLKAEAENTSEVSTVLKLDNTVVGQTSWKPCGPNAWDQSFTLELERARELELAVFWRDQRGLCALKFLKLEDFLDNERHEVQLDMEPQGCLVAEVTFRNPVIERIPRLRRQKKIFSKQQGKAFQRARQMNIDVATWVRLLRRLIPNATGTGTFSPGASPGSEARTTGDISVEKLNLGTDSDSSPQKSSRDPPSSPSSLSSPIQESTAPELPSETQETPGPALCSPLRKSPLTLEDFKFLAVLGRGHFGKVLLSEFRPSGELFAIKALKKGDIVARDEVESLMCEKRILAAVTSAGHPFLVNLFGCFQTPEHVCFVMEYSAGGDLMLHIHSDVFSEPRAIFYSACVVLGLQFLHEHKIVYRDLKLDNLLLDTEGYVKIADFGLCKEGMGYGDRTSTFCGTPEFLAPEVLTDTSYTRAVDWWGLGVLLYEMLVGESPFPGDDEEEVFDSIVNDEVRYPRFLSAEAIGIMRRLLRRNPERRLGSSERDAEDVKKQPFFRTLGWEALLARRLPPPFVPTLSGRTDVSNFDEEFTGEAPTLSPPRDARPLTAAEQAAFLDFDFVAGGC
RUN DESCRIPTION: KINOMEscan competition binding
CONDITION LABEL: compound 10.0 µM
ASSAY READOUT: kinase still bound, per cent of control (%)

# SMILES DATA, TARGET DESC, UNIT OF MEASURE, MEASURED
rows = [
    ("O=c1cc(N2CCOCC2)oc2c(-c3cccc4c3sc3ccccc34)cccc12", "PKN1 (human) (UniProt Q16512)", "%", 100),
    ("COc1ccc(N(C(=O)Oc2c(C)cccc2C)c2ccnc(Nc3ccc(N4CCN(C)CC4)cc3)n2)c(OC)c1", "PKN1 (human) (UniProt Q16512)", "%", 15),
    ("CN(C)C/C=C/C(=O)Nc1ccc(C(=O)Nc2cccc(Nc3nccc(-c4cccnc4)n3)c2)cc1", "PKN1 (human) (UniProt Q16512)", "%", 95),
]

###

TARGET DESC: FGFR2 (human) (UniProt P21802)
Sequence (P21802 whole entry, looked up): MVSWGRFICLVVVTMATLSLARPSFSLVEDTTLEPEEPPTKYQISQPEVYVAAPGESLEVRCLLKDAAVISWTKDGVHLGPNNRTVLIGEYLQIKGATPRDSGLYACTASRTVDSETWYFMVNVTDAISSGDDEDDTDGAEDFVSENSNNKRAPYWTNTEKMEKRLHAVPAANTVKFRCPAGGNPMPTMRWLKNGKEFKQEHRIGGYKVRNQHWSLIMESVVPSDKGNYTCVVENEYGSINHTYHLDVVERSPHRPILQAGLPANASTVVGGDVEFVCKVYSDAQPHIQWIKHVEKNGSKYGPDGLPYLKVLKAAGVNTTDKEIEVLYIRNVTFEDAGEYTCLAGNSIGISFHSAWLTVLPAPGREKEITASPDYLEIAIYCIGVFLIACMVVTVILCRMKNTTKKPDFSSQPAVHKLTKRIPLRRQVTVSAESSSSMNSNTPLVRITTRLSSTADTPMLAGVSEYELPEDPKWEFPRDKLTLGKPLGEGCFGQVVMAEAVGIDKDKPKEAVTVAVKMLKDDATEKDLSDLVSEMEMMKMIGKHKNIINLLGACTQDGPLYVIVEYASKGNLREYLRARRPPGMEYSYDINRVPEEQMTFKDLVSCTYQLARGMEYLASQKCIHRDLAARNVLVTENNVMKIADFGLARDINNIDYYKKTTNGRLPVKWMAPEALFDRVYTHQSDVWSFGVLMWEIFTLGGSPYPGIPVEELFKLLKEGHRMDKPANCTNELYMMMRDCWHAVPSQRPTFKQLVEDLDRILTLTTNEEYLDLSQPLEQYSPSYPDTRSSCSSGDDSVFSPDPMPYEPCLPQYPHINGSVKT
RUN DESCRIPTION: KINOMEscan competition binding
CONDITION LABEL: compound 10.0 µM

# SMILES DATA, TARGET DESC, UNIT OF MEASURE, kinase still bound, per cent of control
rows = [
    ("COc1cc(C(=O)N2CCC(N3CCN(C)CC3)CC2)ccc1Nc1ncc2c(n1)N(C)c1ccccc1C(=O)N2C", "FGFR2 (human) (UniProt P21802)", "%", 95),
    ("CCN(CC)CCCCNc1ncc2c(n1)N(C)C(=O)N(c1c(Cl)c(OC)cc(OC)c1Cl)C2", "FGFR2 (human) (UniProt P21802)", "%", 2.6),
    ("CNC(=O)c1cc(Oc2ccc(NC(=O)Nc3ccc(Cl)c(C(F)(F)F)c3)cc2)ccn1", "FGFR2 (human) (UniProt P21802)", "%", 14),
    ("NC(=O)Nc1cc(-c2cccc(F)c2)sc1C(=O)N[C@@H]1CCCNC1", "FGFR2 (human) (UniProt P21802)", "%", 11),
    ("N#CCNC(=O)c1ccc(-c2ccnc(Nc3ccc(N4CCOCC4)cc3)n2)cc1", "FGFR2 (human) (UniProt P21802)", "%", 58),
    ("CS(=O)(=O)N1CCN(Cc2cc3nc(-c4cccc5[nH]ncc45)nc(N4CCOCC4)c3s2)CC1", "FGFR2 (human) (UniProt P21802)", "%", 100),
    ("O=C1NC(=O)/C(=C/c2ccc3nccc(-c4ccncc4)c3c2)S1", "FGFR2 (human) (UniProt P21802)", "%", 100),
    ("O=c1cc(N2CCOCC2)oc2c(-c3cccc4c3sc3ccccc34)cccc12", "FGFR2 (human) (UniProt P21802)", "%", 82),
    ("C=CC(=O)Nc1cc(-n2c(=O)ccc3cnc4ccc(-c5cn[nH]c5)cc4c32)ccc1C", "FGFR2 (human) (UniProt P21802)", "%", 94),
    ("O=C(Nc1cccc(Nc2ncc(Br)c(NCCc3cnc[nH]3)n2)c1)N1CCCC1", "FGFR2 (human) (UniProt P21802)", "%", 4.6),
    ("COc1ccc(N(C(=O)Oc2c(C)cccc2C)c2ccnc(Nc3ccc(N4CCN(C)CC4)cc3)n2)c(OC)c1", "FGFR2 (human) (UniProt P21802)", "%", 0.45),
]

###

TARGET DESC: AURKC (human) (UniProt Q9UQB9)
Sequence (Q9UQB9 whole entry, looked up): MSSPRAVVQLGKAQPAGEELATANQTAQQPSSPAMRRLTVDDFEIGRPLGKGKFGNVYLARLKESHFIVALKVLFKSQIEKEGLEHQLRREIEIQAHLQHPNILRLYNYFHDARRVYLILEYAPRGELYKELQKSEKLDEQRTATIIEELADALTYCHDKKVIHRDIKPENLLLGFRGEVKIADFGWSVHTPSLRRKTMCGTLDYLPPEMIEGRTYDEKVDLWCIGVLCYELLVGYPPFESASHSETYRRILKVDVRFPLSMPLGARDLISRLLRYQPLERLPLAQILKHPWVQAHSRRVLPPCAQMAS
RUN DESCRIPTION: KINOMEscan competition binding
CONDITION LABEL: compound 10.0 µM

# SMILES DATA, kinase still bound, per cent of control
data = [
    ("CS(=O)(=O)N1CCN(Cc2cc3nc(-c4cccc5[nH]ncc45)nc(N4CCOCC4)c3s2)CC1", "100%"),
    ("CN(C)C/C=C/C(=O)Nc1ccc(C(=O)Nc2cccc(Nc3nccc(-c4cccnc4)n3)c2)cc1", "5.5%"),
    ("CNC(=O)c1ccc(Nc2cc(Nc3ccccc3S(=O)(=O)C(C)C)c3cc[nH]c3n2)nc1", "0.65%"),
    ("COc1cc2ncn(-c3cc(OCc4ccccc4C(F)(F)F)c(C(N)=O)s3)c2cc1OC", "27%"),
    ("O=C1NC(=O)/C(=C/c2ccc3nccc(-c4ccncc4)c3c2)S1", "56%"),
    ("N#CCNC(=O)c1ccc(-c2ccnc(Nc3ccc(N4CCOCC4)cc3)n2)cc1", "18%"),
    ("C[C@@H](Oc1cc(-c2cnn(C3CCNCC3)c2)cnc1N)c1c(Cl)ccc(F)c1Cl", "3.4%"),
    ("COc1cc(C(=O)N2CCC(N3CCN(C)CC3)CC2)ccc1Nc1ncc2c(n1)N(C)c1ccccc1C(=O)N2C", "50%"),
    ("O=C(Nc1cccc(Nc2ncc(Br)c(NCCc3cnc[nH]3)n2)c1)N1CCCC1", "0%"),
]

###

Test system: MET (human), P08581 [Y1235D]
RUN DESCRIPTION: KINOMEscan competition binding
CONDITION LABEL: compound 10.0 µM
ASSAY READOUT: kinase still bound, per cent of control (%)

# SMILES DATA, ASSAY READOUT, UNIT OF MEASURE, MEASURED
data = [
    ("O=C(Nc1cccc(Nc2ncc(Br)c(NCCc3cnc[nH]3)n2)c1)N1CCCC1", "kinase still bound, per cent of control", "%", 2.4),
    ("CCOc1cc2ncc(C#N)c(Nc3ccc(OCc4ccccn4)c(Cl)c3)c2cc1NC(=O)/C=C/CN(C)C", "kinase still bound, per cent of control", "%", 86),
    ("CCOc1cc(N2CCC(O)CC2)ccc1Nc1ncc2c(n1)N(C)c1ccccc1C(=O)N2C", "kinase still bound, per cent of control", "%", 100),
    ("COc1cc2ncnc(-n3nc(-c4ccccn4)nc3N)c2cc1OC", "kinase still bound, per cent of control", "%", 40),
    ("CCC(=O)N1CCN(c2ccc(-n3c(=O)ccc4cnc5ccc(-c6cnc7ccccc7c6)cc5c43)cc2C(F)(F)F)CC1", "kinase still bound, per cent of control", "%", 100),
    ("O=C(O)c1ccc(Nc2ncc3c(n2)-c2ccc(Cl)cc2C(c2c(F)cccc2F)=NC3)cc1", "kinase still bound, per cent of control", "%", 51),
    ("CCN1CCN(Cc2ccc(NC(=O)c3ccc(C)c(/C=C/c4cnc5[nH]ccc5c4OC)c3)cc2C(F)(F)F)CC1", "kinase still bound, per cent of control", "%", 79),
    ("C=CC(=O)Nc1cccc(Nc2nc(N[C@H]3CC[C@H](N(C)C)CC3)nc3c2ncn3C(C)C)c1", "kinase still bound, per cent of control", "%", 100),
    ("Cc1ccc(NC(=O)c2cccc(C(C)(C)C#N)c2)cc1Nc1ccc2ncn(C)c(=O)c2c1", "kinase still bound, per cent of control", "%", 100),
]

FYI, the data here is from the kinase profiling compilation of Christmann-Franck et al. (2016).
